- METHOD_NOTES: cytotoxicity in HPDE-C7 cells, cell-based, fluorescence, HTS (AID 430);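 further: cells exposed to compound for 48 hours before viability readout; 0% = vehicle and 100% = reference cytotoxic drug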
- RECORDED_CONDITIONS: HPDE-C7 pancreatic duct cells viability, at 10 µM
In all, about 63,000 compounds went through this assay and about 1,100 (1.7%) were called active. No stated cut-off is given here; in the data, active means cytotoxicity above about 50%; inactive means the rest. This excerpt belongs to a sample that is enriched for actives. Measured potencies and affinities stand elsewhere.
Outcomes: active, inactive

# SMI, CATEGORY_LABEL
data = [
    ("CCc1ccc(CCC(=O)Nc2sc3c(c2C#N)CCCC3)o1", "active"),
    ("Cc1cc(C(=O)NCCCN2CCN(C3CCCCC3)CC2)n(-c2ccccc2)n1", "inactive"),
    ("O=C(Nc1ccccc1)N(Cc1cccs1)C1CCCC1", "inactive"),
    ("CCOC(=O)c1sc(NC(=O)CSc2n[nH]c(-c3ccccc3)n2)c(C#N)c1C", "inactive"),
]

* * *

- METHOD_NOTES: cytotoxicity in HPDE-C7 cells, cell-based, fluorescence, HTS (AID 430);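 further: cells exposed to compound for 48 hours before viability readout; 0% = vehicle and 100% = reference cytotoxic drug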
- RECORDED_CONDITIONS: HPDE-C7 pancreatic duct cells viability, at 10 µM, active compounds read high
About 1,100 (1.7%) of roughly 63,000 compounds were called active. Only a selection was taken, and actives are over-represented in it overall. Potency and affinity values are given separately.

# COMPOUND, DISPLAY_UNIT, cytotoxicity
data = [
    ("CCN(CC)C(=O)CSc1nc(C)cc(-c2cccs2)c1C#N", "%", 9.8),
    ("N#Cc1c(-c2cccs2)cc(-c2ccccn2)nc1N", "%", 42.3),
    ("O=C(Nc1ccc2c(c1)OCO2)c1cc2n(n1)C(C(F)(F)F)CC(c1ccccc1)N2 (centres undefined)", "%", 64.2),
    ("Cc1cccc(NC(=O)c2cc3n(n2)C(C(F)(F)F)CC(c2ccc4c(c2)OCO4)N3)c1 (centres undefined)", "%", 74.1),
    ("O=C(Nc1cc(Cl)ccc1O)c1cc2n(n1)C(C(F)(F)F)CC(c1ccc3c(c1)OCO3)N2 (centres undefined)", "%", -8.7),
    ("Cc1ccc(S(=O)(=O)Cc2ccc(C(=O)N3CCN(c4cc(C)ccc4C)CC3)o2)cc1", "%", 17.5),
    ("CCOC(=O)c1c(C)c(C(=O)Nc2ccc3c(c2)OCCO3)c(C)n1CC", "%", 17.2),
    ("COc1ccc(NC(=O)c2cc3n(n2)C(C(F)(F)F)CC(c2ccc4c(c2)OCO4)N3)cc1OC (centres undefined)", "%", 63.9),
    ("COc1ccccc1S(=O)(=O)Cc1ccc(C(=O)N2CCN(c3ccccc3)CC2)o1", "%", -24.2),
    ("COc1ccc(NC(=O)CSc2nnc(-c3ccccn3)n2N)cc1", "%", -17.7),
    ("CCN(C(=O)c1ccc(C(C)(C)C)cc1)c1nnc(Cn2nnc3ccccc32)s1", "%", 81.9),
    ("COc1cc(S(=O)(=O)N2CCC(N3CCCCC3)CC2)ccc1-n1cnnn1", "%", 9.2),
    ("CCOc1ccc(-c2nnn(CC(=O)Nc3ccccc3OC)n2)cc1OCC", "%", -3.5),
    ("Cn1c(N)c(C(=O)COC(=O)C2(c3ccccc3F)CCCC2)c(=O)n(C)c1=O", "%", -7),
    ("Cc1ccccc1S(=O)(=O)Cc1ccc(C(=O)N2CCN(c3ccc(F)cc3)CC2)o1", "%", -10),
    ("CC1CC(C)CN(C(=O)C(NS(=O)(=O)c2ccc3c(c2)oc(=O)n3C)C(C)C)C1 (centres undefined)", "%", 9.9),
    ("COc1ccc(-c2ccc(SCC(=O)NCc3ccco3)nn2)cc1", "%", -13.7),
    ("CC(=O)Nc1ccc(S(=O)(=O)N2CCN(c3cc(C)nc4ccccc34)CC2)cc1", "%", 2.1),
    ("COc1ccc(NC(=O)c2cnc3ccccn3c2=O)c(OC)c1", "%", 1),
    ("CCOC(=O)c1c(C)c(C(=O)Nc2ccc(N(C)C)cc2)c(C)n1CC", "%", 54.2),
    ("COc1ccc(S(=O)(=O)N2CCN(c3cccc(C)c3C)CC2)cc1", "%", 2),
    ("Cc1ccccc1S(=O)(=O)Cc1ccc(C(=O)N2CCN(C3CCCCC3)CC2)o1", "%", -7),
    ("O=C(NCc1ccc2c(c1)OCO2)c1cc2n(n1)C(C(F)(F)F)CC(c1ccc3c(c1)OCO3)N2 (centres undefined)", "%", 13.5),
    ("O=C(OCc1ccc(F)cc1Cl)c1ccccn1", "%", 4.8),
    ("COC(=O)c1ccc2c(=O)n(CCCN3CCOCC3)c(=S)[nH]c2c1", "%", 2.7),
    ("COc1ccccc1NC(=O)c1cc2n(n1)C(C(F)(F)F)CC(c1ccc3c(c1)OCO3)N2 (centres undefined)", "%", 38.9),
    ("O=C(Nc1ccc(NC(=O)C2CC2)nc1)c1ccccn1", "%", -20.6),
    ("O=C(CSc1ncc(-c2ccc(F)cc2)n1Cc1ccco1)Nc1ccc2c(c1)OCO2", "%", 72.6),
    ("CN1CCN(C(=O)CSc2nc(-c3cccs3)ccc2C#N)CC1", "%", 15.3),
    ("COc1ccccc1S(=O)(=O)Cc1ccc(C(=O)N2CCN(c3cccc(Cl)c3)CC2)o1", "%", 60.8),
    ("COc1ccc(-c2nnc3sc(-c4ccccn4)nn23)cc1", "%", -5.5),
    ("COc1ccc(S(=O)(=O)N(CC(=O)O)c2ccc(C)cc2)cc1", "%", -20.8),
    ("COc1ccc(-c2nc(SCC(=O)NCc3ccco3)c(-c3ccccc3)[nH]2)cc1OC", "%", -5.2),
    ("CCN(C(=O)CSc1nnc(Cn2nnc3ccccc32)o1)c1nc(-c2ccccc2)cs1", "%", -7.6),
]
